test system: Ditylenchus dipsaci; test: proportion of mobile D. dipsaci (mixed stage) relative to DMSO control (fraction of DMSO control); higher = more viable, less nematicidal, active = 0.86 or less; extreme values may be limits of the assay; settings: 60 µM; 5 days; temperature: 20 °C
// reported proportion of mobile D. dipsaci per item
Format: numeric value only, no unit, no commentary.

> print(dat)
                                   molecule         targetsystem  quantitativereadout
1  COc1ccc(-c2nnc(SCC(=O)Nc3ccc(Br)cc3C(C)C)o2)cc1  Ditylenchus dipsaci                    1
2         N#Cc1cccc(CSc2nnc(-c3ccncc3)o2)c1  Ditylenchus dipsaci                    1
3  COc1ccccc1NC(=O)CSc1nnc(-c2cccc3ccccc23)o1  Ditylenchus dipsaci                    1

Turning to the following molecule.
// query May I ask what proportion of mobile D. dipsaci has been recorded for `Cc1ccc(C(=O)CSc2nnc(-c3ccccc3)o2)cc1` ?
// result 1
